Origin of the recorded values: paper PMC3823425

Test: Plasma pharmacokinetics after p.o. administration
Assay type: in vivo, rats
Conditions: rat, plasma, po, 10 mg
observation.type: Tmax (h)
Give bare numbers, in h.

Q: // Tmax lookup, key: CNC(=O)c1cccc2cc(Oc3ccnc4cc(OCC5(N)CC5)c(OC)cc34)ccc12
Ans: 6

----------
Assay: Tissue distribution in tumour-bearing nude mice
Type: in vivo
Settings: nude, mouse, tumour, oral, 10 mg/kg
observation.type: concentration at 21 day
Dear colleague, please send the value followed by its unit.

Q: // concentration at 21 day lookup, key: CNC(=O)c1cccc2cc(Oc3ccnc4cc(OCC5(N)CC5)c(OC)cc34)ccc12
Ans: 403 ng/g

----------
Target: PDGFRβ (Homo sapiens)
Sequence (P09619 33-1106, species assumed): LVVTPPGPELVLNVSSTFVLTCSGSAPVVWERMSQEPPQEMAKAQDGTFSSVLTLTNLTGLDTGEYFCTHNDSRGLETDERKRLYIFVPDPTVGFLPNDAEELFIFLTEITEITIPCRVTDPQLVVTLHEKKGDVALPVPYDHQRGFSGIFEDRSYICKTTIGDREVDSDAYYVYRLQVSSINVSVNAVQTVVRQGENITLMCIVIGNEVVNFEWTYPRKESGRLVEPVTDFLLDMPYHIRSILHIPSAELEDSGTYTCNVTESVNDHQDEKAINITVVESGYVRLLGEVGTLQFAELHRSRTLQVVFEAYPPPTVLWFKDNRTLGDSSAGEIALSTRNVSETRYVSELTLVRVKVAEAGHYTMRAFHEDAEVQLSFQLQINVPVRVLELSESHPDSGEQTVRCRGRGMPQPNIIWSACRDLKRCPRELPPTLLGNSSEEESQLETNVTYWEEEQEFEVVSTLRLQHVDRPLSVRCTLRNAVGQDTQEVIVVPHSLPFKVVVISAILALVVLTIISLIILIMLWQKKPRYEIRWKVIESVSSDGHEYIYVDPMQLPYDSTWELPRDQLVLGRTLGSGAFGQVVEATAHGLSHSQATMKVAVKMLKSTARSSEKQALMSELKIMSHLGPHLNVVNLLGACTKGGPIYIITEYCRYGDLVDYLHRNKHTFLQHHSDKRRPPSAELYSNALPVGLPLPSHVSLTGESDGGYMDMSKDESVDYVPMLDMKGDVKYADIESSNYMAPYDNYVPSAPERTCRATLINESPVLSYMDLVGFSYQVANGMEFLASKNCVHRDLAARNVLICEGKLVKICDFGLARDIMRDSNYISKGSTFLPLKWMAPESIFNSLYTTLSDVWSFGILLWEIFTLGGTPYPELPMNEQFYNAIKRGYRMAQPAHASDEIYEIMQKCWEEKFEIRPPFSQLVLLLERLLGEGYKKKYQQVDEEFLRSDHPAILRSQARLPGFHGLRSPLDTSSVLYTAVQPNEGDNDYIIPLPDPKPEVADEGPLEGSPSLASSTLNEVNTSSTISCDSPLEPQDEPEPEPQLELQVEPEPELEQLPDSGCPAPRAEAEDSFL
Experiment: ELISA kinase assay PDGFRβ
Type: biochemical
observation.type: IC50

Q: Item CNC(=O)c1cccc2cc(Oc3ccnc4cc(OCC5(N)CC5)c(OC)cc34)ccc12 [AL3810] with PDGFRβ (Homo sapiens) - IC50?
Ans: 8 nM

----------
Target: PDGFRα (Homo sapiens, UniProt P16234)
Sequence (P16234 24-1089, species assumed): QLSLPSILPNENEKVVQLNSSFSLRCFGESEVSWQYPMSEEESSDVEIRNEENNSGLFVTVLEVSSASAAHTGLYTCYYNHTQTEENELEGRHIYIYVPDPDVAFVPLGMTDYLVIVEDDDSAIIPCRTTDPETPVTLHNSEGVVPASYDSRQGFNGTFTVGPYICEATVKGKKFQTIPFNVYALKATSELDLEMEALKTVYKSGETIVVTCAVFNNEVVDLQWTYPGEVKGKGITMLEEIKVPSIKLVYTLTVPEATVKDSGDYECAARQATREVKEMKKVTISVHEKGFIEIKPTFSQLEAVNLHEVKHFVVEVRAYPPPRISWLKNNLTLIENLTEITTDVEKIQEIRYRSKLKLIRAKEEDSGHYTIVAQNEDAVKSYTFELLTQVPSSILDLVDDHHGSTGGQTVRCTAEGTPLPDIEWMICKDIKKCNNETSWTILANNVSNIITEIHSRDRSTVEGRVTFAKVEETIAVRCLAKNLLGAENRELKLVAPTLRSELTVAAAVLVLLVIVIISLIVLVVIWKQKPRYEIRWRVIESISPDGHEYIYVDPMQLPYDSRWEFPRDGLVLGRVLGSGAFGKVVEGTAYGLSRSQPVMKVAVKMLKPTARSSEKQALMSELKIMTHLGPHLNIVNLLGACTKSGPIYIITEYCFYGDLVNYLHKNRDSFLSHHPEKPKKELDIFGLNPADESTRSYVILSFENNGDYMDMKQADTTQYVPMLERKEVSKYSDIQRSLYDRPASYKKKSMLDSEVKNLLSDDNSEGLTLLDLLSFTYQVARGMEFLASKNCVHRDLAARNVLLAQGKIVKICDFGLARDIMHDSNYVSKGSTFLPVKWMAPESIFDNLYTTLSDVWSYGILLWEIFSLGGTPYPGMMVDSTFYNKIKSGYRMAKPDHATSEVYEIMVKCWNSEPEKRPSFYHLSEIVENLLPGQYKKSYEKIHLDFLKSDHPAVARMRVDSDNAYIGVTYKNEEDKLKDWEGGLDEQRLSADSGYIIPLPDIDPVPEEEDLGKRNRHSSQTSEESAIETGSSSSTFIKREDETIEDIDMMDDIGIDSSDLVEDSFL
Assay: ELISA kinase assay PDGFRα
Type: biochemical
observation.type: pIC50
One number for each entry, as −log10 of the molar value.

Q: // pIC50 lookup, key: CNC(=O)c1cccc2cc(Oc3ccnc4cc(OCC5(N)CC5)c(OC)cc34)ccc12
Ans: 7.89
